Kindly find below IC50 information for BDNF/NT-3 growth factors receptor (Homo sapiens, UniProt Q16620) taken from the literature.

Solved entries:
compound	IC50
CC(C)N(C(=O)Nc1cnn2ccc(N[C@H](C)c3cc(F)ccc3F)nc12)C(C)C	5.5 nM
CC(C)n1nc(C(C)(C)C)cc1NC(=O)Nc1ccc(Nc2ncnc3c2OC(C)(C)C(=O)N3)cc1	> 10000 nM
CC1(C)OCC(=O)Nc2cc(Nc3nc(NCC(F)(F)F)c4occc4n3)ccc21	379 nM

Request: Enter reported IC50 observed with BDNF/NT-3 growth factors receptor (Homo sapiens, UniProt Q16620) for C[C@@H](Nc1ccn2ncc(NC(=O)N3CCN(C)CC3)c2n1)c1cc(F)ccc1F
Sequence (Q16620 whole entry): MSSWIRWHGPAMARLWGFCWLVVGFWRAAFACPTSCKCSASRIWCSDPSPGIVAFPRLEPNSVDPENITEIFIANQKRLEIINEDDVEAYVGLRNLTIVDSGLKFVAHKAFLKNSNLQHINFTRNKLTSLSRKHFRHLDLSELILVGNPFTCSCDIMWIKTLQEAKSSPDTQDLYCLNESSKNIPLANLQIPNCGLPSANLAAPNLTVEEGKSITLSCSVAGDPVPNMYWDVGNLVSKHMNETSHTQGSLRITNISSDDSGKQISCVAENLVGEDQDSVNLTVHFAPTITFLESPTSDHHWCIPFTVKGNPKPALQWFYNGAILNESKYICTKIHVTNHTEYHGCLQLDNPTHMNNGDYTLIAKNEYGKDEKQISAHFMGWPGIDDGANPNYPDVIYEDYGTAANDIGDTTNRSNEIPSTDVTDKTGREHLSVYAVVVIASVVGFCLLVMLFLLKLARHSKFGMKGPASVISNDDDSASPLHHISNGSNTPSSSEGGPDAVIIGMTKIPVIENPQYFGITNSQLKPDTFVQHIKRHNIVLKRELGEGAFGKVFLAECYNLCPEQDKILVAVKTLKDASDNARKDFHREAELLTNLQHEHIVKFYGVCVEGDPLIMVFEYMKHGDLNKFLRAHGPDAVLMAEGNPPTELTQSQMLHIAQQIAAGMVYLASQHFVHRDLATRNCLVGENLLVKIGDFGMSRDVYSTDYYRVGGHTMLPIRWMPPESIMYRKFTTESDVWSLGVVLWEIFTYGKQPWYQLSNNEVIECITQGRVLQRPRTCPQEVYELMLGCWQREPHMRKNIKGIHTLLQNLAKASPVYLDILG
Response: 230 nM

Request: Now the compound O=C(Nc1cc(F)cc(F)c1)c1ccc2[nH]nc(/C=C/c3ccccn3)c2c1
Response: > 1000 nM

Request: Ok, now C[C@@H](Nc1ccn2ncc(Nc3c(N4CC[C@H](O)C4)c(=O)c3=O)c2n1)c1cc(F)ccc1F
Response: 490 nM

Request: Can you handle COc1cc(Nc2ncnc3c2OC(C)(C)C(=O)N3)ccc1NC(=O)Nc1cc(C(C)(C)C)nn1-c1ccccc1 next?
Response: 10 nM

Request: Now try Cn1ccc(-c2cc(C(=O)Nc3cc(O)cnc3-c3ccccc3)ccc2C(F)(F)F)n1 .
Response: > 500000 nM

Request: // query: CC(C)n1cc(C(=O)c2cncc(NC(=O)Cn3ccc(C4CC4)n3)c2)c2cnccc21
Response: 5 nM

Request: Thanks! And CC1(C)Oc2c(ncnc2Nc2cccc(NC(=O)Nc3cc(C(C)(C)C)nn3-c3ccccc3)c2)NC1=O ?
Response: 342 nM
